# target or test system: T1, human TGFβ2, mature receptor-binding domain (human, UniProt P09858 303-414 (pig entry), The mature TGFβ2 is a disulfide-linked homodimer of this 112-residue chain. The 4A11 epitope spans both monomers (p-1207).)
# T1 construct: Peprotech; also called TGFb2
# T1 sequence: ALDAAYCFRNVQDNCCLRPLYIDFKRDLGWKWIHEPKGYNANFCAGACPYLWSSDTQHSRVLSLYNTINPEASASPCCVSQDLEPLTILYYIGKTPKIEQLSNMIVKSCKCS
# assay explanation: BIAcore T200
quantity: pKd
// pKd is dimensionless: -log10 of concentration (M)

Before answering, review these 5 worked examples.
- binder: "h4A11.v2 (antibody, human IgG1, kappa, N297G, V domains shown) VH: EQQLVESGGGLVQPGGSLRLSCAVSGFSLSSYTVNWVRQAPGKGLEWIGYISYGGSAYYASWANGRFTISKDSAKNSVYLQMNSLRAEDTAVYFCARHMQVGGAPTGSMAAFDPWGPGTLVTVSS VL: DAQLTQSPSSLSASVGDRVTITCQSSQSVYNNNYLSWFQQKPGKPPKLLIYGASTLTSGVPSRFSGSGSGTDFTLTISSLQPEDFATYYCAGGYSGSSDKYAFGGGTKVEIKR"
  pKd: 11.85
- binder: "h4A11.v3 (antibody, human IgG1, kappa, N297G, V domains shown) VH: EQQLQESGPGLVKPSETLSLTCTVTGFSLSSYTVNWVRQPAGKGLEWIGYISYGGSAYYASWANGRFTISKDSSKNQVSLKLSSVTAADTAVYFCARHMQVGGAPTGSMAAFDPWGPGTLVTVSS VL: DAVLTQSPDSLAVSLGERATINCQSSQSVYNNNYLSWFQQKPGQPPKLLIYGASTLTSGVPDRFSGSGSGTDFTLTISSLQAEDVAVYYCAGGYSGSSDKYAFGGGTKVEIKR"
  pKd: 11.02
- binder: "h4A11.v8 (antibody, V domains shown) VH: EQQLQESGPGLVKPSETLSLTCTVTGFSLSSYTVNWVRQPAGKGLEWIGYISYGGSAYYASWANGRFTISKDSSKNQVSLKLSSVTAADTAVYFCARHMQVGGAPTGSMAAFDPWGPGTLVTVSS VL: DAVLTQTPLSSPVTLGQPASISCQSSQSVYNNNYLSWFQQRPGQPPRLLIYGASTLTSGVPDRFSGSGAGTDFTLKISRVEAEDVGVYYCAGGYSGSSDKYAFGGGTKVEIK"
  pKd: 11.09
- binder: "h4A11.v6 (antibody, human IgG1, kappa, N297G, V domains shown) VH: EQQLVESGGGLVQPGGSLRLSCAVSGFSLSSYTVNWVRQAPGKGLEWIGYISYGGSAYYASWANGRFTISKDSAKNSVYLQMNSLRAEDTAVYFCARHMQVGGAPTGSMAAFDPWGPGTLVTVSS VL: DAVLTQTPLSSPVTLGQPASISCQSSQSVYNNNYLSWFQQRPGQPPRLLIYGASTLTSGVPDRFSGSGAGTDFTLKISRVEAEDVGVYYCAGGYSGSSDKYAFGGGTKVEIKR"
  pKd: 11.08
- binder: "h4A11.v5 (antibody, human IgG1, kappa, N297G, V domains shown) VH: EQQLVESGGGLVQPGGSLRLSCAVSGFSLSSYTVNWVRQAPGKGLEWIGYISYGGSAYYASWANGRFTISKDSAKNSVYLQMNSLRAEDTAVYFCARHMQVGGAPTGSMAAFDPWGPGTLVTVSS VL: EAVLTQSPGTLSLSPGERATLSCQSSQSVYNNNYLSWFQQKPGQPPRLLIYGASTLTSGVPDRFSGSGSGTDFTLTISRLEPEDFAVYYCAGGYSGSSDKYAFGGGTKVEIKR"
  pKd: 10.92

Field: next binder
Looking for the measured pKd of h4A11.v4 (antibody, human IgG1, kappa, N297G, V domains shown) VH: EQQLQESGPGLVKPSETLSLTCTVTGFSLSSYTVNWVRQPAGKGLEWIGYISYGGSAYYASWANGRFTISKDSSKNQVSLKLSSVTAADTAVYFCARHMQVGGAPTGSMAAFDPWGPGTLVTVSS VL: DAQLTQSPSSLSASVGDRVTITCQSSQSVYNNNYLSWFQQKPGKPPKLLIYGASTLTSGVPSRFSGSGSGTDFTLTISSLQPEDFATYYCAGGYSGSSDKYAFGGGTKVEIKR , can you help? 11.00
